pIC50 values for the compounds below.
Tgt: IMP-1 (Serratia marcescens, UniProt P52699)
Sequence (P52699 whole entry, looked up, species assumed): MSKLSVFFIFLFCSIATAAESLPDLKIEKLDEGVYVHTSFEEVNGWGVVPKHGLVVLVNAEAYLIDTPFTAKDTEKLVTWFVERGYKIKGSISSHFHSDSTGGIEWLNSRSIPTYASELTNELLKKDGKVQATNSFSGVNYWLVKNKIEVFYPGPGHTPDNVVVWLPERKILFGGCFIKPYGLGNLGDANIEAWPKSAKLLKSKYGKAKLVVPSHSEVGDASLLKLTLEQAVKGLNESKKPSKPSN
Assay info: biochemical
Format: biochemical
Condition parameters: fluorescence assay, CCF2-FA substrate, 2 pM enzyme, 2 hours at 25° C.; read-out: IMP-1 IC50
// pIC50 here means minus log10 of the molar concentration (mol/L)

{"columns": ["Compound", "Tgt", "Meas value"],
 "data": [
  ["CN1CCC(CNS(=O)(=O)c2ccc(-c3cccc4sc(N)nc34)c(-c3nnn[nH]3)c2S(N)(=O)=O)C1.O=C(O)C(F)(F)F (stereo not drawn) [Example 102, 2,2,2-trifluoroacetate]", "IMP-1 (Serratia marcescens, UniProt P52699)", 9.58],
  ["Nc1nc2c(-c3ccc(S(=O)(=O)N[C@H]4CNC[C@@H]4O)c(S(N)(=O)=O)c3-c3nnn[nH]3)cccc2[nH]1", "IMP-1 (Serratia marcescens, UniProt P52699)", 8.68]
]}

What value of pIC50 has been reported for the following compound? `NCc1nc2cc(-c3ccc(S(=O)(=O)NC[C@@H](O)CN)c(S(N)(=O)=O)c3-c3nn[nH]n3)ccc2[nH]1`
8.94

What value of pIC50 has been reported for the following compound? `NC[C@H](N)CNS(=O)(=O)c1ccc(-c2cnccc2N)c(-c2nn[nH]n2)c1S(N)(=O)=O`
8.35

What value of pIC50 has been reported for the following compound? `NCCNc1cc(-c2ccc(S(=O)(=O)NCCO)c(S(N)(=O)=O)c2-c2nn[nH]n2)ccn1`
8.28

* * *

Efflux ratio values for the compounds below.
Tested on: Pseudomonas aeruginosa MB9798 vs MB9799
Condition parameters: ratio MITC95 PA_9798/MITC95 PA_9799

{"columns": ["Compound", "Tgt", "Efflux ratio"],
 "data": [
  ["NCCNS(=O)(=O)c1ccc(-c2cccn3ccnc23)c(-c2nn[nH]n2)c1S(N)(=O)=O [Example 361]", "Pseudomonas aeruginosa MB9798 vs MB9799", 1.00],
  ["Nc1nc2c(-c3ccc(S(=O)(=O)NC[C@@H]4CNCCN4)c(S(N)(=O)=O)c3-c3nn[nH]n3)cccc2[nH]1 [Example 310]", "Pseudomonas aeruginosa MB9798 vs MB9799", 1.00]
]}

As a next step, examine the compound that follows.
What value of Efflux ratio has been reported for the following compound? NCc1ncc(-c2cccc(-c3ccc(S(=O)(=O)N[C@@H]4CCNC4)c(S(N)(=O)=O)c3-c3nn[nH]n3)c2)[nH]1 [Example 278]
1.00

* * *

Tgt: NDM-1 (Klebsiella pneumoniae)
Sequence (C7C422 whole entry, looked up, species assumed): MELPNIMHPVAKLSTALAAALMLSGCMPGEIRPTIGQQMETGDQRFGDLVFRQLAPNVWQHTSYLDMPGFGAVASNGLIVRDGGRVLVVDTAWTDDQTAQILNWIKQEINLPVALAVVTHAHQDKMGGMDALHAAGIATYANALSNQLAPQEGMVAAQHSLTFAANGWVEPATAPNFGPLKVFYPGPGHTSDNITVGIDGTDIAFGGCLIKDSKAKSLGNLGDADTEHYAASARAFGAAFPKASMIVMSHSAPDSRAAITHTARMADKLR
Assay info: biochemical
Format: biochemical
Condition parameters: fluorescence assay, CCF2-FA substrate, 1 pM enzyme, 2 hours at 25° C.; read-out: NDM-1 IC50
Property measured: IC50 (nM)
Express your answer in nM, writing the number without its unit.

{"columns": ["Compound", "Tgt", "IC50 (nM)"],
 "data": [
  ["Cc1ccc(-c2ccc(S(=O)(=O)N[C@@H]3CCNC3)c(S(N)(=O)=O)c2-c2nn[nH]n2)c2nc(N)[nH]c12", "NDM-1 (Klebsiella pneumoniae)", 0.0295],
  ["NC[C@H](O)CNS(=O)(=O)c1ccc(-c2ccc3nccn3c2)c(-c2nn[nH]n2)c1S(N)(=O)=O", "NDM-1 (Klebsiella pneumoniae)", 0.152]
]}

As a next step, examine the compound that follows.
What value of IC50 has been reported for the following compound? `Nc1nc2c(-c3ccc(S(=O)(=O)N[C@H]4CN[C@@H](CO)C4)c(S(N)(=O)=O)c3-c3nnn[nH]3)cccc2s1`
0.0286
